System: VZV strain Ellen
Assay: VZV Antiviral (ELISA) assay
Format: cell-based
Conditions: VZV strain Ellen in HFF cells
Protocol: For the generation of stock VZV to be used in the assay, VZV strain Ellen (ATCC #VR-1367) is used to infect human foreskin fibroblast (HFF) cells at low multiplicity (less than 0.1) and incubated overnight at 37° C. in 5% CO2. […] Antiviral activity (IC50) of the test compound is determined by comparing the flourescence obtained in absence of compound to that obtained in the presence of compound.
MEASUREMENT NAME: IC50 (ug/ml) VZV

Some compounds with recorded IC50 (ug/ml) VZV:
COMPOUND	IC50 (ug/ml) VZV
CC(NC(=S)Nc1ccc(NC(=O)c2csnn2)cc1)c1ccc(F)c(C(F)(F)F)c1 (stereo not shown)	>7.5 µg/mL
CC(CCc1ccccc1)NC(=S)Nc1ccc(NC(=O)c2csnn2)cc1 (stereo not shown)	2.5 µg/mL
O=C(Nc1ccc(NC(=S)NNc2cccc(Cl)c2)cc1)c1ccco1	5 µg/mL
O=C(Nc1ccc(NC(=S)Nc2ccc(Cl)c(C(F)(F)F)c2)cc1)c1csnn1	>15 µg/mL
CC(NC(=S)Nc1ccc(NC(=O)c2csnn2)cc1)c1ccc(F)cc1 (stereo not shown)	0.22 µg/mL
Nc1ccc(NC(=S)Nc2ccc(NC(=O)c3ccco3)cc2)cc1Cl	>10 µg/mL
O=C(Nc1ccc(NC(=S)NCCc2ccccc2)cc1)c1csnn1	2 µg/mL
CC(NC(=S)Nc1ccc(NC(=O)c2cscn2)cc1)c1ccc(Cl)c(F)c1 (stereo not shown)	0.62 µg/mL
CN1CCN(c2ccc(CNC(=S)Nc3ccc(NC(=O)c4csnn4)cc3)cc2C(F)(F)F)CC1	>10 µg/mL
O=C(CN1CCSCC1)Nc1ccc(NC(=S)Nc2ccc(NC(=O)c3ccco3)cc2)cc1Cl	>10 µg/mL

Can you give me IC50 (ug/ml) VZV for all of these, one by one?
1. COc1cc(NC(=S)Nc2ccc(NC(=O)c3csnn3)cc2)cc(OC)c1
2. O=C(Nc1ccc(NC(=S)Nc2ccc(F)c(C(F)(F)F)c2)cc1)c1csnn1
3. O=C(Nc1ccc(NC(=S)NCCc2cccc(F)c2)cc1)c1csnn1
4. CCC(NC(=S)Nc1ccc(NC(=O)c2cscn2)cc1)c1cc(C(F)(F)F)cc(C(F)(F)F)c1 (stereo not shown)
5. COc1cc(OC)c(NC(=S)Nc2ccc(NC(=O)c3cncc4ccccc34)cc2)cc1Cl
6. O=C(Nc1ccc(NC(=S)Nc2cccc(Br)c2)cc1)c1csnn1

Found:
>10 µg/mL
>10 µg/mL
1.5 µg/mL
>7.5 µg/mL
>10 µg/mL
>10 µg/mL

* * *

test system: HSV-1; assay: HSV Antiviral (ELISA) assay; assay type: cell-based; details: HSV-1 in Vero cells
Please provide measured IC50 (ug/ml) HSV for the entries that follow.

Some molecules with recorded IC50 (ug/ml) HSV:
COC(=O)c1cc(NC(=S)Nc2ccc(NC(=O)c3ccco3)cc2)cc(C(=O)OC)c1 >10 µg/mL
O=C(Nc1ccc(NC(=S)Nc2cc(Cl)cc(Cl)c2)cc1)c1cscn1 >10 µg/mL

Now for the molecule whose IC50 (ug/ml) HSV we want.
Lookup: Using known records, supply IC50 (ug/ml) HSV for O=C(Nc1ccc(NC(=S)NCCc2cccc(C(F)(F)F)c2)cc1)c1csnn1
Found: >10 µg/mL

* * *

Please provide measured IC50 (ug/ml) VZV for the entries that follow.
system: VZV strain Ellen; experiment: VZV Antiviral (ELISA) assay; type: cell-based; conditions: VZV strain Ellen in HFF cells

COc1cc(OC)c(NC(=S)Nc2ccc(NC(=O)c3nnsc3-c3ccccc3)cc2)cc1Cl >10 µg/mL
Nc1cc(Cl)cc(NC(=S)Nc2ccc(NC(=O)c3csnn3)cc2)c1 >10 µg/mL

Now for the molecule whose IC50 (ug/ml) VZV we want.
Lookup: Using known records, supply IC50 (ug/ml) VZV for CN(C)c1cc(NC(=S)Nc2ccc(NC(=O)c3csnn3)cc2)cc(C(F)(F)F)c1
Found: >10 µg/mL

* * *

tested on: VZV strain Ellen; experiment: VZV Antiviral (ELISA) assay; format: cell-based; settings: VZV strain Ellen in HFF cells
MEASUREMENT NAME: IC50 (ug/ml) VZV

Some compounds with recorded IC50 (ug/ml) VZV:
COMPOUND	TARGET UNDER TEST	IC50 (ug/ml) VZV
COc1cc(NC(=S)Nc2ccc(NC(=O)c3ccco3)cc2)cc(OC)c1	VZV strain Ellen	>15 µg/mL
CN(C)c1cc(Cl)cc(NC(=S)Nc2ccc(NC(=O)c3ccco3)cc2)c1	VZV strain Ellen	2 µg/mL
CN(c1ccc(NC(=S)Nc2ccc(NC(=O)c3ccccn3)cc2)cc1Cl)C1CCCCC1	VZV strain Ellen	>10 µg/mL
O=C(CN1CCCCC1)Nc1ccc(NC(=S)Nc2ccc(NC(=O)c3ccco3)cc2)cc1Cl	VZV strain Ellen	5 µg/mL
O=C(Nc1ccc(NC(=S)Nc2ccc3[nH]cnc3c2)cc1)c1ccco1	VZV strain Ellen	>10 µg/mL
N#Cc1cccc(NC(=S)Nc2ccc(NC(=O)c3ccco3)cc2)c1	VZV strain Ellen	>10 µg/mL

Can you give me IC50 (ug/ml) VZV for all of these, one by one?
1. O=C(Nc1ccc(NC(=S)NCc2cccc(Cl)c2)cc1)c1csnn1
2. O=C(Nc1ccc(NC(=S)NC(c2ccccc2)c2cc(C(F)(F)F)cc(C(F)(F)F)c2)cc1)c1csnn1 (stereo not shown)

Found:
1. >10 µg/mL
2. >7.5 µg/mL

Can you give me IC50 (ug/ml) VZV for all of these, one by one?
1. Cc1ccc(CCNC(=S)Nc2ccc(NC(=O)c3csnn3)cc2)cc1
2. O=C(Nc1ccc(NC(=S)NCCOc2ccccc2)cc1)c1ccco1

Found:
1: >10 µg/mL; 2: >10 µg/mL
